# TEST SUMMARY: Tissue distribution of amifampridine and 3-N-acetylamifampridine in rats
# Type: in vivo, rat
# EXPERIMENTAL CONDITIONS: Sprague Dawley, rat, lungs; 60 min after oral amifampridine 2 mg/kg, control; read-out: Tissue partition coefficient (Kp), Lungs
VALUE KIND: Kp at 1 h

1 = CC(=O)Nc1cnccc1N
2 = Nc1ccncc1N
Ask: Lab note: record which item had the higher Kp at 1 h, 1 or 2 . Reply with the label of the item you choose.
Reply: 1
(1: 2.9, 2: 1.7)

###

# TEST SUMMARY: Urinary excretion of amifampridine and 3-N-acetylamifampridine in rats
# Assay type: in vivo, rat
# EXPERIMENTAL CONDITIONS: Sprague Dawley, rat, urine, oral, 2 mg/kg, 24 h, oral amifampridine 2 mg/kg, control rats; read-out: total urinary recovery
VALUE KIND: dose excreted (%)
# value in %; strip the unit string

Input "Nc1ccncc1N" . Output dose excreted: 6.7

###

# TEST SUMMARY: Tissue distribution of amifampridine and 3-N-acetylamifampridine in rats
# Type: in vivo, rat
# EXPERIMENTAL CONDITIONS: Sprague Dawley, rat, lungs; 60 min after oral amifampridine 2 mg/kg, acetaminophen 100 mg/kg; read-out: Tissue partition coefficient (Kp), Lungs
VALUE KIND: Kp at 1 h

CC(=O)Nc1cnccc1N [3-N-acetylamifampridine]: 2.7
Nc1ccncc1N [amifampridine]: 2.2

###

# TEST SUMMARY: Tissue distribution of amifampridine and 3-N-acetylamifampridine in rats
# Assay type: in vivo, rat
# EXPERIMENTAL CONDITIONS: male, Sprague-Dawley, rat, kidney; 60 min after oral amifampridine 2 mg/kg, acetaminophen 100 mg/kg; read-out: Tissue partition coefficient (Kp), Kidney
VALUE KIND: Kp at 1 h

CC(=O)Nc1cnccc1N: 5.1
Nc1ccncc1N: 3.6

###

# TEST SUMMARY: In vivo pharmacokinetic interaction study in rats (plasma)
# Set-up: species or system rat
# EXPERIMENTAL CONDITIONS: male, Sprague-Dawley, rat, plasma, po, 2 mg/kg, oral amifampridine 2 mg/kg, acetaminophen-treated group (100 mg/kg ip)
VALUE KIND: Cmax (µg/mL)

a = Nc1ccncc1N
b = CC(=O)Nc1cnccc1N
Ask: For the pair a and b , which entry has the numerically smaller recorded Cmax? Reply with the label of the item you choose.
Reply: a
(a: 0.2 µg/mL, b: 0.88 µg/mL)

###

# TEST SUMMARY: Tissue distribution of amifampridine and 3-N-acetylamifampridine in rats
# Assay type: in vivo, rat
# EXPERIMENTAL CONDITIONS: male, Sprague-Dawley, rat, liver; 60 min after oral amifampridine 2 mg/kg, acetaminophen 100 mg/kg; read-out: Tissue partition coefficient (Kp), Liver
VALUE KIND: Kp at 1 h

Nc1ccncc1N: 3
CC(=O)Nc1cnccc1N: 3

###

# TEST SUMMARY: Tissue distribution of amifampridine and 3-N-acetylamifampridine in rats
# Assay type: in vivo, rat
# EXPERIMENTAL CONDITIONS: male, Sprague-Dawley, rat, kidney; 60 min after oral amifampridine 2 mg/kg, control; read-out: Tissue partition coefficient (Kp), Kidney
# Experimental: To investigate the effects of acetaminophen on the tissue distribution of amifampridine and 3-N-acetylamifampridine, rats were sacrificed at 60 min after administration of amifampridine in control and acetaminophen-treated rats (n = 6) as mentioned above, and the tissues, including liver, kidney, heart, lungs, spleen, brain, and muscle tissues, were obtained. […] The supernatants were transferred to LC vials for quantification. […]
VALUE KIND: Kp at 1 h

P = CC(=O)Nc1cnccc1N
Q = Nc1ccncc1N
Ask: Lab note: record which item had the higher Kp at 1 h, P or Q . Reply with the label of the item you choose.
Reply: P
(P: 16.6, Q: 7.4)
